These entries and their values trace back to patent US20260125457A1.

# SYSTEM NAME: CALRins5 (mutant calreticulin, 5 base pair insertion, Type 2) expressed with MPL on engineered cancer cells (UniProt P27797)
# Sequence (P27797 other isoform, or with tags, fused parts or gaps mutant limits assumed): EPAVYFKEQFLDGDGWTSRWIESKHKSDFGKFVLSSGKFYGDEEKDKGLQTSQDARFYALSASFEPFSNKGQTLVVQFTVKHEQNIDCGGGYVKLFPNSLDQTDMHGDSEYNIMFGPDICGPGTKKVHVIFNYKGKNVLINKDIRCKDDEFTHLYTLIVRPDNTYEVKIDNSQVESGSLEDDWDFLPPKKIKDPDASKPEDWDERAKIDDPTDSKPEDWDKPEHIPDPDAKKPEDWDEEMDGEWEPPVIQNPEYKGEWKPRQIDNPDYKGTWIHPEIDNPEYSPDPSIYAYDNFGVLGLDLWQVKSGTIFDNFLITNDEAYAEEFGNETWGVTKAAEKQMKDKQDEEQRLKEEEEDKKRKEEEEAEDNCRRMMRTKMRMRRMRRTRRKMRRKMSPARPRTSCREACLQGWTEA
# METHOD: cell-based or functional assay
READOUT KIND: Cytotoxicity EC50, K562 MPL CALRins5 cells (µg/mL)

{"BINDER": "CALRB80 (MP1018C Fab x CD3W245-LH-scFv, medium affinity) (bispecific antibody, part only; not given: CD3 scFv arm and IgG1 constant regions, V domains shown, not shown: another chain or arm of the molecule; a dimerising Fc or GST; small tags and cut ends) VL: DVVMTQTPSSVSAAVGGTVTINCQASQSLYNNKNLAWYQQKPGQPPKLLIYYASALASGVSSRFKGSGSGTQFTLTISGVQSDDAATYYCQGEFNCNSADCNSFGGGTEVVVK VH: QSVEESGGRLVTPGTPLTITCTVSGFSLSSYAMSWVRQAPGKGLEWIGVIDSGGTTYYATWAKSRFTISKTSSTKVALKITSPTTEDTATYFCARESYAGYDGYGHPIPYGMDPWGPGTLVTVSS", "UOM": "µg/mL", "TEST RESULT": 0.0434}
{"BINDER": "CALRB118 (MP1016C Fab x CD3W245-HL-scFv, high affinity) (bispecific antibody, part only; not given: CD3 scFv arm and IgG1 constant regions, V domains shown, not shown: another chain or arm of the molecule; a dimerising Fc or GST; small tags and cut ends) VL: DPVLTQTESPVSAAVGGTVTINCQASQSVYDDNNLAWYQQKPGQPPKRLIYPASTLASGVSSRFSGSGSGSQFTLTISDVQSDDAATYYCQGEFSCTSADCVAFGGGTEVVVK VH: QEQLKESGGRLVTPGTPLTLTCTASGFSLSNYYMSWVRQAPGKGLEWIGGISSRAGTWYASWAKGRFTISGTSSTTMDLKITSPTTEDTATYFCARGLKIWGPGTLVTVSS", "UOM": "µg/mL", "TEST RESULT": 0.0157}
